Documented IC50 across a set of compounds
- System Under Test: Tyrosine-protein phosphatase non-receptor type 1 (Homo sapiens, UniProt P18031)
- Assay Remarks: Inhibition of recombinant human PTP1B using p-nitrophenyl phosphate as substrate after 30 mins
Numbers only; they are read as nM.

CC(C)=CCc1c(O)cc2occ(-c3cc(O)c4c(c3)C=CC(C)(C)O4)c(=O)c2c1O ... 1480
CC(C)=CCc1cc([C@@H]2CC(=O)c3c(cc(O)c(CC=C(C)C)c3O)O2)ccc1O ... 1030
CC(C)=CCc1cc(/C=C/C(=O)c2ccc(O)cc2O)ccc1O ... 970

Moving on to another compound below.
# IC50 (compound: `CC(C)=CCc1c(O)ccc([C@H]2COc3cc(O)c(CC=C(C)C)c(O)c3C2=O)c1O` ) is 840

----------
- Test system: RAW264.7
- Assay Remarks: Antiinflammatory activity in mouse RAW264.7 cells assessed as inhibition of LPS-induced NO production at 10 uM after 24 hrs by Griess reagent based assay relative to control
- Format: functional
- Test Context: RAW264.7, 24 h
Reported Metric: inhibition at 10 µM (%)
Numbers only; they are read as %.

CC(C)=CCc1c(O)ccc(-c2coc3c(CC=C(C)C)c(O)cc(O)c3c2=O)c1O ... 11
CC1(C)C=Cc2c(ccc(-c3cc4ccc(O)cc4o3)c2O)O1 ... 22
CC(C)=CCc1c(O)cc(O)c2c(=O)c(-c3ccc(O)cc3)coc12 ... 18
COc1cc([C@H]2COc3cc(O)ccc3C2)ccc1O ... 23
CC(C)=CCc1c(O)cc2occ(-c3cc(O)c4c(c3)C=CC(C)(C)O4)c(=O)c2c1O ... 0
CC(C)=CCc1cc(-c2coc3c(CC=C(C)C)c(O)cc(O)c3c2=O)cc(O)c1O ... 0
CC(C)=CCc1cc([C@@H]2CC(=O)c3ccc(O)cc3O2)ccc1O [ABYSSINONE II] ... 8
CC(C)=CCc1c(O)ccc(-c2coc3cc(O)cc(O)c3c2=O)c1O ... 20

Moving on to another compound below.
RAW264.7 assay, compound O=C1C[C@@H](c2ccc(O)cc2)Oc2cc(O)cc(O)c21 [NARINGENIN] , recorded inhibition at 10 µM = 6

----------
- System Under Test: Tyrosine-protein phosphatase non-receptor type 1 (Homo sapiens) (UniProt P18031)
- Sequence (P18031 whole entry): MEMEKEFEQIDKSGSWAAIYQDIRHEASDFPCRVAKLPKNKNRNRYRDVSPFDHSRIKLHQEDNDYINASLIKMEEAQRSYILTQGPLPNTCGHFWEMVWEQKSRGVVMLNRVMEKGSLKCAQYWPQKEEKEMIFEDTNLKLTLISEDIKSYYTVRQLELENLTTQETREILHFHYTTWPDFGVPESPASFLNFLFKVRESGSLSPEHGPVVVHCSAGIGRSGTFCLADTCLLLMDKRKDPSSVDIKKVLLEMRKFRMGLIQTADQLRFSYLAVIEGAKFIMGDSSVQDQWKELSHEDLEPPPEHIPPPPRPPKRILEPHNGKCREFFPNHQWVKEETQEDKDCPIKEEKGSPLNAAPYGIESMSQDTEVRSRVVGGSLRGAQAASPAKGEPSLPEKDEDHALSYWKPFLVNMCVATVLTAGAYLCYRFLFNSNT
- Assay Remarks: Inhibition of recombinant human PTP1B using p-nitrophenyl phosphate as substrate at 10 uM after 30 mins relative to control
Reported Metric: inhibition

Below, each entry is followed by its recorded inhibition result.
CC(C)=CCc1c(O)ccc(C(=O)/C=C/c2ccc(O)c(O)c2)c1O ... 16%
CC(C)=CCc1c(O)ccc([C@H]2COc3cc(O)c(CC=C(C)C)c(O)c3C2=O)c1O ... 98%
CC(C)=CCc1c(O)cc2occ(-c3ccc4c(c3O)C=CC(C)(C)O4)c(=O)c2c1O ... 34%
COc1cc([C@H]2COc3cc(O)ccc3C2)ccc1O ... 2%
CC(C)=CCc1cc2c(=O)cc(-c3ccc(O)cc3)oc2cc1O ... 79%

# inhibition (compound: `CC1(C)C=Cc2cc(-c3coc4cc(O)ccc4c3=O)cc(O)c2O1` ) is 0%

# inhibition (compound: `CC1(C)C=Cc2cc(/C=C/C(=O)c3ccc(O)cc3O)ccc2O1` ) is 33%

# inhibition (compound: `CC1(C)C=Cc2c(O)ccc(-c3coc4cc(O)cc(O)c4c3=O)c2O1` ) is 36%

# inhibition (compound: `CC(C)=CCc1cc([C@@H]2CC(=O)c3c(cc(O)c(CC=C(C)C)c3O)O2)ccc1O` ) is 90%

# inhibition (compound: `CC1(C)C=Cc2c(O)ccc([C@@H]3COc4cc(O)cc(O)c4C3=O)c2O1` ) is 1%

# inhibition (compound: `CC(C)=CCc1c(O)ccc(-c2coc3cc(O)c(CC=C(C)C)c(O)c3c2=O)c1O` ) is 78%

# inhibition (compound: `COc1c(/C=C/C(=O)c2ccc(O)cc2)ccc(O)c1CC=C(C)C` ) is 20%

# inhibition (compound: `CC(C)=CCc1cc2c(=O)cc(-c3ccc4c(c3)C=CC(C)(C)O4)oc2cc1O` ) is 33%

# inhibition (compound: `C=CC(C)(C)c1cc(/C=C/C(=O)c2ccc(O)cc2)c(OC)c(O)c1O` ) is 48%

# inhibition (compound: `C=CC(C)(C)c1cc(/C=C/C(=O)c2ccc(O)cc2)c(OC)cc1O` ) is 18%

# inhibition (compound: `CC(C)=CCc1cc([C@@H]2CC(=O)c3c(O)cc(O)c(CC=C(C)C)c3O2)ccc1O` ) is 46%

# inhibition (compound: `C=C(C)[C@H](C)c1cc(/C=C/C(=O)c2ccc(O)cc2)c(OC)cc1O` ) is 21%

# inhibition (compound: `O=C1C[C@@H](c2ccc(O)cc2)Oc2cc(O)ccc21` ) is 36%

# inhibition (compound: `COc1ccc(-c2coc3cc(O)ccc3c2=O)cc1` ) is 33%

# inhibition (compound: `COc1c(/C=C/C(=O)c2ccc(O)cc2)ccc(O)c1O` ) is 64%

# inhibition (compound: `COc1c(/C=C/C(=O)c2ccc(O)c(O)c2)ccc(O)c1CC=C(C)C` ) is 75%

# inhibition (compound: `CC(C)=CCc1c(O)ccc(-c2coc3cc(O)ccc3c2=O)c1O` ) is 56%

----------
Documented inhibition at 10 µM across a set of compounds
- System: RAW264.7
- Assay Remarks: Antiinflammatory activity in mouse RAW264.7 cells assessed as inhibition of LPS-induced NO production at 10 uM after 24 hrs by Griess reagent based assay relative to control
- Assay type: functional
- Test Context: RAW264.7, 24 h
Numbers only; they are read as %.

O=c1c(-c2ccc(O)cc2)coc2cc(O)cc(O)c12 ... 13
CC(C)=CCc1c(O)cc(O)c2c(=O)c(-c3ccc(O)cc3O)coc12 ... 9
CC(C)=CCc1c(O)c(CC=C(C)C)c2occ(-c3ccc(O)cc3)c(=O)c2c1O ... 22
CC1(C)C=Cc2cc(/C=C/C(=O)c3ccc(O)cc3O)ccc2O1 ... 23
CC1(C)C=Cc2cc(-c3coc4cc(O)ccc4c3=O)cc(O)c2O1 ... 22
CC1(C)C=Cc2cc(-c3coc4cc(O)cc(O)c4c3=O)ccc2O1 ... 10
CC(C)=CCc1c(O)c(CC=C(C)C)c2oc(-c3ccc(O)cc3)cc(=O)c2c1O ... 9
CC(C)=CCc1cc(-c2cc(=O)c3c(O)c(CC=C(C)C)c(O)cc3o2)ccc1O ... 5

Moving on to another compound below.
# inhibition at 10 µM (compound: `CC1(C)C=Cc2c(cc3occ(-c4ccc(O)cc4)c(=O)c3c2O)O1` ) is 19

----------
- System Under Test: Tyrosine-protein phosphatase non-receptor type 1 (Homo sapiens)
- Assay Remarks: Inhibition of recombinant human PTP1B using p-nitrophenyl phosphate as substrate at 10 uM after 30 mins relative to control
Reported Metric: inhibition (%)
Numbers only; they are read as %.

COc1ccc2c(c1)OC[C@H]1c3ccc(O)cc3O[C@@H]21 ... 2
CC(C)=CCc1c(O)ccc(-c2coc3cc(O)cc(O)c3c2=O)c1O ... 7

Moving on to another compound below.
# inhibition (compound: `O=C1C[C@@H](c2ccc(O)cc2)Oc2cc(O)cc(O)c21` ) is 43

----------
- System Under Test: Mushroom tyrosinase (Agaricus bisporus) (UniProt O42713+Q00024+C7FF04+C7FF05)
- Assay Remarks: Inhibition of mushroom tyrosinase at 10 uM using L-tyrosine as substrate incubated for 15 mins followed by substrate addition relative to control
# label = bin(measured inhibition), where bins are low: < 7%; moderate: ≥ 7% and < 10%; high: ≥ 10%

# example entries with known answers
CC(C)=CCc1c(O)ccc(-c2cc3ccc(O)cc3o2)c1O [2'-O-DEMETHYLBIDWILLOL B] ... high
COc1ccc2c(c1)OC[C@H]1c3ccc(O)cc3O[C@@H]21 ... high
CC1(C)C=Cc2c(ccc(-c3coc4cc(O)cc(O)c4c3=O)c2O)O1 [LICOISOFLAVONE B] ... high
CC(C)=CCc1cc2c(=O)cc(-c3ccc4c(c3)C=CC(C)(C)O4)oc2cc1O ... moderate

q: The entry to classify is `CC1(C)C=Cc2c(ccc(-c3cc4ccc(O)cc4o3)c2O)O1` ; which class holds it?
a: high

q: The entry to classify is `CC1(C)C=Cc2c(O)ccc([C@@H]3COc4cc(O)cc(O)c4C3=O)c2O1` ; which class holds it?
a: moderate

q: The entry to classify is CC(C)=CCc1c(O)ccc(C(=O)/C=C/c2ccc(O)cc2)c1O [ISOBAVACHALCONE] ; which class holds it?
a: high

q: The entry to classify is CC(C)=CCc1cc([C@@H]2CC(=O)c3ccc(O)c(CC=C(C)C)c3O2)ccc1O [GLABROL] ; which class holds it?
a: moderate

q: The entry to classify is CC1(C)C=Cc2c(cc3occ(-c4ccc(O)cc4)c(=O)c3c2O)O1 [ALPINUMISOFLAVONE] ; which class holds it?
a: low

q: The entry to classify is O=c1c(-c2ccc(O)cc2)coc2cc(O)cc(O)c12 [GENISTEIN] ; which class holds it?
a: low

q: The entry to classify is `CC1(C)C=Cc2cc(-c3coc4cc(O)ccc4c3=O)cc(O)c2O1` ; which class holds it?
a: low

q: The entry to classify is CC(C)=CCc1cc2c(=O)cc(-c3ccc(O)cc3)oc2cc1O [LICOFLAVANONE A] ; which class holds it?
a: high

q: The entry to classify is `CC(C)=CCc1c(O)cc2occ(-c3cc(O)c4c(c3)C=CC(C)(C)O4)c(=O)c2c1O` ; which class holds it?
a: low

q: The entry to classify is `CC(C)=CCc1c(O)ccc(C(=O)/C=C/c2ccc(O)c(O)c2)c1O` ; which class holds it?
a: high

q: The entry to classify is `O=c1c(-c2ccc(O)c(O)c2)coc2cc(O)ccc12` ; which class holds it?
a: moderate
